Target: Dopamine beta hydroxylase activity in human plasma (Homo sapiens)
Construct: 125 μl of plasma (or saline for blank reaction or standard curve); tissue Instituto Português do Sangue Transplantação; host or cells: human plasma from healthy donors
Sequence (P09172 40-617 limits assumed): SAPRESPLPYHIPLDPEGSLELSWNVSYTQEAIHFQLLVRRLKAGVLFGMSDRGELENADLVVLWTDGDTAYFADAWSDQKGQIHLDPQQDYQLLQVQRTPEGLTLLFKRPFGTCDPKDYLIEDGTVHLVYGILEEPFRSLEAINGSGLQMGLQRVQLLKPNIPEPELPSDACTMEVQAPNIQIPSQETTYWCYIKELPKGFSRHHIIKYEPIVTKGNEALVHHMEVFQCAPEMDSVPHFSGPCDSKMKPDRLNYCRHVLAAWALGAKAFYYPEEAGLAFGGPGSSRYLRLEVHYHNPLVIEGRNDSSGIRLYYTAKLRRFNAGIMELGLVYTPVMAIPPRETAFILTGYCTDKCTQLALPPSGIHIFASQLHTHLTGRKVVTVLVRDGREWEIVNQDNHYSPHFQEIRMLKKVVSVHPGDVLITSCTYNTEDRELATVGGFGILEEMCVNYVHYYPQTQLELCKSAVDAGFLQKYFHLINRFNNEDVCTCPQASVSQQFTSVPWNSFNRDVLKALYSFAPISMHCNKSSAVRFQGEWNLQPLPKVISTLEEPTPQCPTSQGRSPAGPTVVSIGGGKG
Assay: DβH activity in human plasma
Assay type: biochemical
Settings: 0.1 μM inhibitor; human plasma; numbers in brackets; read-out: DβH activity in % of Ctrl (0.1 μM), human plasma assay
I'd be grateful if you could share measured remaining activity at 0.1 µM for these entries.
Please respond with the number in % and leave the unit unwritten.

[Q] What value of measured remaining activity at 0.1 µM is listed for Cc1[nH]c(=S)n2c1C[C@@H](c1c(F)ccc(Br)c1F)C2 ?
[A] 12.1

[Q] What value of measured remaining activity at 0.1 µM is listed for Cc1[nH]c(=S)n2c1C[C@H](c1c(F)ccc(Br)c1F)C2 ?
[A] 23.8

[Q] What value of measured remaining activity at 0.1 µM is listed for Cc1[nH]c(=S)n2c1C[C@H](c1c(F)c(F)cc(F)c1F)C2 ?
[A] 57.3

[Q] What value of measured remaining activity at 0.1 µM is listed for [2H]C([2H])([2H])c1[nH]c(=S)n2c1[C@@H]1C[C@]1(c1cc(Br)ccc1F)C2 ?
[A] 10

[Q] What value of measured remaining activity at 0.1 µM is listed for Cc1[nH]c(=S)n2c1C[C@H](c1c(F)ccc(F)c1F)C2 ?
[A] 27.7

* * *

I'd be grateful if you could share measured remaining activity at 0.1 µM for these entries.
Biological target: Dopamine beta hydroxylase activity in human plasma (Homo sapiens)
Construct: 125 μl of plasma (or saline for blank reaction or standard curve); tissue Instituto Português do Sangue Transplantação; host or cells: human plasma from healthy donors
Sequence (P09172 40-617 limits assumed): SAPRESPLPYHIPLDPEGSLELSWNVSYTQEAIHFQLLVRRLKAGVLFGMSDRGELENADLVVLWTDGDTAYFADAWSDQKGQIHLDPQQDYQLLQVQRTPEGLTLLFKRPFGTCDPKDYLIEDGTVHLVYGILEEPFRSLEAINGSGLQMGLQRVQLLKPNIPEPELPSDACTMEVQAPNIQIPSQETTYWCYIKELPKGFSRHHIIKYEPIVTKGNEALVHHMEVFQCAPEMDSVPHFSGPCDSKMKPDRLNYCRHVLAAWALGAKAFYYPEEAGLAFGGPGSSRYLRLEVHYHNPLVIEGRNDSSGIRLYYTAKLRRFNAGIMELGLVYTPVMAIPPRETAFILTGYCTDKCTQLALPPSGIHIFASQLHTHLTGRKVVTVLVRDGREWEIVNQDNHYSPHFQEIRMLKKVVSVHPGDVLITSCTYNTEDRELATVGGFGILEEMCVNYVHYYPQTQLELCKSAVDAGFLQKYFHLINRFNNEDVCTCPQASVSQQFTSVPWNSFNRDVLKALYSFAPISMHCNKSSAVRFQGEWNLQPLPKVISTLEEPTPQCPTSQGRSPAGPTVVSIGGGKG
Assay: DβH activity in human plasma
Type: biochemical
Conditions: 0.1 μM inhibitor; human plasma; numbers in brackets; read-out: DβH activity in % of Ctrl (0.1 μM), human plasma assay
Please respond with the number in % and leave the unit unwritten.

[Q] What value of measured remaining activity at 0.1 µM is listed for Cc1[nH]c(=S)n2c1C[C@@H](c1c(F)c(F)cc(F)c1F)C2 ?
[A] 74.1

[Q] What value of measured remaining activity at 0.1 µM is listed for Cc1[nH]c(=S)n2c1[C@@H]1C[C@]1(c1cc(F)cc(Cl)c1)C2 ?
[A] 49.9

[Q] What value of measured remaining activity at 0.1 µM is listed for Cc1[nH]c(=S)n2c1C[C@@H](c1cc(Cl)ccc1F)C2 ?
[A] 67

[Q] What value of measured remaining activity at 0.1 µM is listed for Cc1[nH]c(=S)n2c1[C@@H]1C[C@]1(c1c(F)ccc(Cl)c1F)C2 ?
[A] 4.7

[Q] What value of measured remaining activity at 0.1 µM is listed for Cc1[nH]c(=S)n2c1C[C@H](c1c(F)cccc1F)C2 ?
[A] 0.5

[Q] What value of measured remaining activity at 0.1 µM is listed for Cc1[nH]c(=S)n2c1C[C@H](c1cc(Br)ccc1F)C2 ?
[A] 88.8

[Q] What value of measured remaining activity at 0.1 µM is listed for Cc1[nH]c(=S)n2c1C[C@@H](c1cc(Br)ccc1F)C2 ?
[A] 39.1

[Q] What value of measured remaining activity at 0.1 µM is listed for Cc1[nH]c(=S)n2c1[C@@H]1C[C@]1(c1cc(Cl)ccc1F)C2 ?
[A] 38.3
